# system: T1, human IL-2Rγ endogenously expressed on NK-92 and Jurkat cells (human, UniProt P31785 23-369)
# T1 construct: whole, on cells; on cells it stands with the other receptor subunits of the cell line; also called IL-2Rg; CD132
# T1 sequence (looked up): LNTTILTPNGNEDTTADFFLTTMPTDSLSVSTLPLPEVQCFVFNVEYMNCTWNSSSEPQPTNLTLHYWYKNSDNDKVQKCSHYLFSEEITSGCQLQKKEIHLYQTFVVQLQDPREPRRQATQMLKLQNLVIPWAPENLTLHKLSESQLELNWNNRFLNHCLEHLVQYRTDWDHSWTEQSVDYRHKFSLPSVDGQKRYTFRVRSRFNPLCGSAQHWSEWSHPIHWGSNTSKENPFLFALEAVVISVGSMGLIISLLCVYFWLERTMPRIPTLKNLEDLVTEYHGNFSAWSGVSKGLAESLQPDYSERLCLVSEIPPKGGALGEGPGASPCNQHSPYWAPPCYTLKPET
# test_name: flow cytometry, 10 ug/ml antibody, NK-92 cells (endogenous human IL-2Rg)
quantity: Binding Ratio (Sample over unstained MFIs)

Examples with answers:
| binder | assay_result |
| --- | --- |
| H4H13538P (antibody, human IgG4 S228P, kappa, V domains shown, fully human anti-IL2Rg antibody, human IgG4) VH: EVQLVESGGGLVQPGGSLGLSCAASGFTFSNYAMSWVRQAPGKGLEWVSAVSGGGGGTYYADSVKGRFTISRDNSKNTVLLQMNSLRAEDTAVYYCARGRTGGLDYWGPGTLVTVSS VL: DVVMTQSPLSLPVIFGQPASISCRSSQSLVDSDGNTYLNWLQQRPGQSPRRLIYEVSNRDSGVPDRFSGSGSGTDFTLTISRVEAEDVGIYYCMQGTRWPPTFGGGTKVEIKR | 1 |
| H4H12871P (antibody, human IgG4 S228P, kappa, V domains shown, fully human anti-IL2Rg antibody, human IgG4; also called REGN9434) VH: QVQLQESGPGLVKPSQTLSLTCTVSGGSITSGGYYWSWIRQYPGQGLEWIGYIYYSGKTYYNPSFTSRITISVDTSKKQFSLKMSSVTAADTAVYYCARAGFTSSNGWFDPWGQGTLVTVSS VL: DIQMTQSPSSLSASVGDRVTITCRASQNIRSYLNWYQQKPGKAPKLLIYSASSLQSGVPSRFSGSGSGTDFTLTISSLQPEDFPTYYCQQTYSSPWTFGPGTKVEIKR | 92 |
| H4H12884P (antibody, human IgG4 S228P, kappa, V domains shown, fully human anti-IL2Rg antibody, human IgG4) VH: QVQLQESGPGLVKPSQTLSLTCTVSGGSISSGGYYWSWIRQHPGKGLEWIGFIYYSGKTYYNPSLKSRLTISVDTSKSQFSLKLRSVTAADTAVYYCARLGYTNSAGWFDPWGQGTLVTVSS VL: DIQMTQSPSSLSASVGDRVTITCRASQSISSYLNWYQQKPGKAPNLLIYAASSLQSGVPSRFSGSGSGTDFTLTISSLQPEDLATYYCQQSYTTPFTFGPGTKVDIKR | 90 |
| H4H12900P (antibody, human IgG4 S228P, kappa, V domains shown, fully human anti-IL2Rg antibody, human IgG4) VH: QVQLVESGGGLVKPGGSLRLSCEASGFTFNDFYMTWIRQAPGKGLEWIAYISKSGDKMRYADSVKGRFSTSRDNAKNSLSLQMNSLRAEDTAVYYCARFYGDIWGQGTLVTVSS VL: DIQLTQSPSFLSASVGDRVTITCWASQDISSFLVWYQQKPGKAPNLLIYAASALQSGVPSRFSGSGSGTEFTLTISSLQPEDFASYYCEQLNNYPWTFGQGTKVEIKR | 28 |

For every record below, what is its Binding Ratio (Sample over unstained MFIs)?
1. H4H13541P (antibody, human IgG4 S228P, kappa, V domains shown, fully human anti-IL2Rg antibody, human IgG4) VH: EVQLVESGGGVVRPGGSLRLSCAASGFIFDDYDMSWVRQPPGRGLEWVSGIDWFGGTRGYADSMKGRFTISRDNAKNSLYLQMNSLRVEDTAFYYCARGGAIVGAVTPFDYWGQGTLVTVSS VL: DIQMTQSPSSLSASVGNRVTLSCRASQSINTYLSWYQQRPGKAPKLLIYAASSLQSGVPSRFSGSGAGTDFTLTISSLQPEDFATYYCQQSYSAPLTFGGGTKVEIKR
2. H4H12899P (antibody, human IgG4 S228P, kappa, V domains shown, fully human anti-IL2Rg antibody, human IgG4) VH: QVQLVESGGDLVKPGGSLRLSCATSGFTFSDFYMTWIRQAPGKGLEWISYISNSGSIVKYADSVKGRFTISRDNAKNSLYLQMNSLRAEDTAIYYCARFYGDRWGQGTLVTVSS VL: DIQLTQSPSFLSASVGDRVTITCWASQGISTFLAWYQQKPGKAPKLLIYAASTLQSGVPSRFSGSGSGTDFTLTISSLQPEDFATYHCQQLNNYPWTFGQGTKVEIKR

Reply |
1: 37; 2: 18

For every record below, what is its Binding Ratio (Sample over unstained MFIs)?
1. H4H12858P (antibody, human IgG4 S228P, kappa, V domains shown, fully human anti-IL2Rg antibody, human IgG4; also called REGN9433) VH: EVQLVESGGDLVQPGGSLRLSCTASGFIFRNYAMNWVRQAPGKGLEWLSGILGSNDNTYYVDSVKGRFTISRDNSRNTLYLQMNSLRAEDSAVYYCAKGDAGGFDYWGQGTLVTVSS VL: DVVMTQSPLSLPVILGQPASISCRSSQSLVSSDGNTYLNWFQQRPGQSPRRLIYKVSNRDSGVPDRFSGSGSGTDFTLKISRVEAEDVGAYYCMQGSYWPPTFGQGTKLEIKR
2. H4H12886P (antibody, human IgG4 S228P, kappa, V domains shown, fully human anti-IL2Rg antibody, human IgG4) VH: EVQLVESGGGLVKPGGSLRLSCAASGFTFSTAWMSWVRQSPGRGLEWVGRMKSKTDGGTTFYAAPVKGRFTISRDDSKNTLYLQMNSLKTEDTAVYYCTTGLVPAFYKYYGVDVWGQGTTVTVSS VL: DIQMTQSPSSLSASVGDRITITCQASQDITNYLNWYQQKPGKAPNLLIYDASNLVTGVPSRFSGSGSGTDFTFTILSLQPEDIATYYCQQYDSLLTFGPGTKVDIKR
3. H4H12874P (antibody, human IgG4 S228P, kappa, V domains shown, fully human anti-IL2Rg antibody, human IgG4) VH: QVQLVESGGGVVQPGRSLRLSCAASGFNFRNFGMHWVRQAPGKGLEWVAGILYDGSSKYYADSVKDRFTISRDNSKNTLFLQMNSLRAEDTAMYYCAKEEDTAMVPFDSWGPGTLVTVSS VL: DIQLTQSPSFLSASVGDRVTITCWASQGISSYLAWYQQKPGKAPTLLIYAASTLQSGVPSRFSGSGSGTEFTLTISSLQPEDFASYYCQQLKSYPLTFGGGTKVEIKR
4. H4H12863P (antibody, human IgG4 S228P, kappa, V domains shown, fully human anti-IL2Rg antibody, human IgG4) VH: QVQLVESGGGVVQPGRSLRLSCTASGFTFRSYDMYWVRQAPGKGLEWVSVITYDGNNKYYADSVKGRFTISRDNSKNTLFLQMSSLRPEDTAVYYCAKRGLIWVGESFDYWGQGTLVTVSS VL: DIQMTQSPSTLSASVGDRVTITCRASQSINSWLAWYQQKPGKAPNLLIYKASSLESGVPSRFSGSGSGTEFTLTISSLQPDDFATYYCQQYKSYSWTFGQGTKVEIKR

Reply |
1: 2; 2: 32; 3: 44; 4: 87
